assay: Evaluation of Brain/Plasma Concentrations; type: in vivo; conditions: rat, brain; Sprague-Dawley rats, 10 mg/kg oral intragastric in 0.5% MC, two hours after administration, average of two or three animals; read-out: Brain Conc.

| compound | concentration at 2 h |
| --- | --- |
| CCCOCCNC(=O)Nc1nc2ccc(-c3cncc(C(F)(F)F)c3)nc2s1 [Compound 1] | 157 ng/g |
| COCCCNC(=O)Nc1nc2ccc(-c3cncc(C(F)(F)F)c3)nc2s1 [Compound 10] | 662 ng/g |
| CCOCCCNC(=O)Nc1nc2ccc(-c3cncc(C(F)(F)F)c3)nc2s1 [Compound 11] | 55 ng/g |

Data provenance: patent US20110135603A1
